Value source: PubChem BioAssay AID1963860

# Test system: CN0375-F725-PDC KRAS spheroid viability;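 also: spheroids exposed to agents for 7 days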
# METHOD: Anticancer human tumor CN0375-F725-PDC patient-derived colon carcinoma cell line growth inhibition [KRAS2]; active = viability on the fitted dose curve at most 10% of control; inactive = the rest
# CONDITIONS_USED: second compound 1 µM; first compound 0.01 µM; spheroids with HUVEC and MSC
# output must be one of class 1 for active, class 0 for inactive

Worked examples follow.
Dear colleague, could you share the recorded outcome for CCN1CCN(Cc2ccc(Nc3ncc(F)c(-c4cc(F)c5nc(C)n(C(C)C)c5c4)n3)nc2)CC1 + C=CC(=O)N1CCN(c2nc(OCC3CCCN3C)nc3c2CCN(c2cccc4cccc(C)c24)C3)CC1CC#N when you have a moment?
class 0

// outcome(item) with item = CC(=O)Nc1cccc(-n2c(=O)n(C3CC3)c(=O)c3c(Nc4ccc(I)cc4F)n(C)c(=O)c(C)c32)c1 + CNCc1ccccc1-c1csc(C(C)Nc2nc(C)nc3cc(OC)c(OC)cc23)c1
class 1

Per the assay record, what outcome was assigned to CC(C)n1nc(-c2ccc3oc(N)nc3c2)c2c(N)ncnc21 + CNCc1ccccc1-c1csc(C(C)Nc2nc(C)nc3cc(OC)c(OC)cc23)c1 ?
class 0

// next entry
Which outcome did this test record for the molecule CC1COCCN1c1cc(-c2ccnn2C)c2ccnc(-c3ccn[nH]3)c2n1 (centres undefined) + CC1OCC2(CCN(c3cnc(Sc4ccnc(N)c4Cl)c(N)n3)CC2)C1N ?
class 0
